Target: FKBP51FK1 (Homo sapiens, UniProt Q13451)
Sequence (Q13451 42-130 limits assumed): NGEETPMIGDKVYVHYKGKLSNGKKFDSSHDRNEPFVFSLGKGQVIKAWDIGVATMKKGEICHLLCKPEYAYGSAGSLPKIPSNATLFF
Assay: competitive fluorescence polarization assay, FKBP51FK1
Format: binding
Conditions: ± = standard error from three independent measurements [b] or error from two independent measurements [d], SEM, read-out: FKBP51FK1 K i
READOUT KIND: Ki (nM)
Please state the figure in nM; there is no need to write the unit.

Entry under review: COc1ccc(CC[C@H]2OC(=O)[C@@H]3CCCCN3C(=O)[C@@H](C3CCCCC3)NC(=O)C(C)(C)NC(=O)COc3cccc2c3)cc1OC [13 c] . Reported Ki?
290

Entry under review: COc1ccc(CC[C@@H](OC(=O)[C@@H]2CCCCN2C(=O)[C@H](c2cc(OC)c(OC)c(OC)c2)C2CCCCC2)c2cccc(OCC(=O)O)c2)cc1OC [SAFit1, reference compound] . Reported Ki?
4

Entry under review: COc1ccc(CC[C@H]2OC(=O)[C@@H]3CCCCN3C(=O)[C@@H](C3CCCCC3)NC(=O)CNC(=O)COc3cccc2c3)cc1OC [13 a] . Reported Ki?
2300

Entry under review: COc1ccc(CC[C@H]2OC(=O)[C@@H]3CCCCN3C(=O)[C@@H](C3CCCCC3)NC(=O)C3(CC3)NC(=O)COc3cccc2c3)cc1OC [13 d] . Reported Ki?
400

###

Could you please report measured pKi for the items listed next?
Molecular target: FKBP12 (Homo sapiens, UniProt P62942)
Sequence (P62942 whole entry): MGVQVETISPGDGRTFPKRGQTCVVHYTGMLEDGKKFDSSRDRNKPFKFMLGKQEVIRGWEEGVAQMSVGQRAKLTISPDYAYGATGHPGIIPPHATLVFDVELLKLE
Assay: competitive fluorescence polarization assay, FKBP12
Format: binding
Settings: competitive fluorescence polarization assay; >80 μM = highest measurable concentration before compound precipitation; ± = standard error from three independent measurements; read-out: FKBP12 K i
pKi: −log10 of the molar value.

Entry under review: COc1ccc(CC[C@H]2OC(=O)[C@@H]3CCCCN3C(=O)[C@@H](C3CCCCC3)NC(=O)CNC(=O)COc3cccc2c3)cc1OC . Reported pKi?
< 4.10

Entry under review: COc1ccc(CC[C@H]2OC(=O)[C@@H]3CCCCN3C(=O)[C@@H](C3CCCCC3)NC(=O)[C@@H]3CCCN3C(=O)COc3cccc2c3)cc1OC . Reported pKi?
< 4.10

Entry under review: COc1ccc(CC[C@H]2OC(=O)[C@@H]3CCCCN3C(=O)[C@@H](C3CCCCC3)NC(=O)C3(CCCC3)NC(=O)COc3cccc2c3)cc1OC . Reported pKi?
< 4.10

###

Target: UniProtKB Q13451
Assay: isothermal titration calorimetry (ITC)
Type: binding
Conditions: 25 °C, 20 mM HEPES pH 8.0, 20 mM NaCl, 5% glycerol, 2% DMSO; one-site binding model; mean ± SD from 3 independent experiments; SD; read-out: Kd-value for FKBP51FK1 by ITC
Could you please report measured pKd for the items listed next?
Answer as the number alone; pKd is minus log10 of concentration in mol/L.

Entry under review: COc1ccc(CC[C@H]2OC(=O)[C@@H]3CCCCN3C(=O)[C@@H](C3CCCCC3)NC(=O)C3(CC3)NC(=O)COc3cccc2c3)cc1OC . Reported pKd?
6.22

Entry under review: COc1ccc(CC[C@H]2OC(=O)[C@@H]3CCCCN3C(=O)[C@@H](C3CCCCC3)NC(=O)CNC(=O)COc3cccc2c3)cc1OC . Reported pKd?
5.44

###

Could you please report measured Ki for the items listed next?
Molecular target: FKBP51FK1 (Homo sapiens)
Assay: competitive fluorescence polarization assay, FKBP51FK1
Assay type: binding
Settings: meta B ring substituent R6, read-out: FKBP51 Ki (Table S1)
Please state the figure in nM; there is no need to write the unit.

Entry under review: COc1ccc(CC[C@H]2OC(=O)[C@@H]3CCCCN3C(=O)[C@@H](C3CCCCC3)NC(=O)C3(CC3)NC(=O)COc3cccc2c3)cc1OC . Reported Ki?
290

Entry under review: COc1cc2cc(c1)[C@@H](CCc1ccc(OC)c(OC)c1)OC(=O)[C@@H]1CCCCN1C(=O)[C@@H](C1CCCCC1)NC(=O)C(C)(C)NC(=O)CO2 . Reported Ki?
390

Entry under review: COc1ccc(CC[C@H]2OC(=O)[C@@H]3CCCCN3C(=O)[C@@H](C3CCCCC3)NC(=O)C(C)(C)NC(=O)COc3cc(O)cc2c3)cc1OC . Reported Ki?
370
